The measured values listed here are drawn from patent US20060069132A1.

system: lambsquarters; assay: Test C pre-/postemergence herbicide test; format: in vivo, Chenopodium album; settings: 62 g ai/ha; preemergence
As shown below, each of these molecules has a reported Plant response rating (0 = no effect, 100 = complete control), Lambsquarters value.
Simply state the number, no unit and no words.

SMI: CCn1nc(C(C)(C)C)cc1C(=O)Nc1ccc(F)c(C(=O)NCCF)c1
OBSERVED_VALUE: 100

SMI: CCC(=NO)c1cccc(NC(=O)c2cc(C(C)(C)C)nn2C)c1
OBSERVED_VALUE: 50

SMI: CC(=NO)c1cccc(NC(=O)c2cc(C(C)(C)C)nn2C)c1
OBSERVED_VALUE: 0

SMI: CCn1nc(C(C)(C)C)cc1C(=O)Nc1cccc(C#N)c1
OBSERVED_VALUE: 100

(Q) Enter measured Plant response rating (0 = no effect, 100 = complete control), Lambsquarters, system lambsquarters, for the molecule shown: CCCCn1nc(C(C)(C)C)cc1C(=O)Nc1cccc(C(=O)NCC)c1
(A) 50

* * *

test system: yellow nutsedge; assay: Test C pre-/postemergence herbicide test; assay type: in vivo, Cyperus esculentus; settings: 62 g ai/ha; preemergence; scale 0 to 100
As shown below, each of these compounds has a reported Plant response rating, Nutsedge, Yellow value.
Simply state the number, no unit and no words.

COMPOUND: CCNC(=O)c1cccc(NC(=O)c2nn(C(C)(C)CC)nc2CC)c1
Plant response rating, Nutsedge, Yellow: 5

(Q) Fill in Plant response rating, Nutsedge, Yellow for record CCNC(=O)c1ccnc(NC(=O)c2cc(C(C)(C)C)nn2CC)c1
(A) 10

(Q) Fill in Plant response rating, Nutsedge, Yellow for record CCNC(=O)c1ccc(F)c(N(C(C)=O)C(=O)c2cc(C(C)(C)C)nn2CC)c1
(A) 45

(Q) Fill in Plant response rating, Nutsedge, Yellow for record CCc1nc(C(C)(C)C)sc1C(=O)Nc1cccc(C(=O)NCC2CC2)n1
(A) 0

(Q) Fill in Plant response rating, Nutsedge, Yellow for record CCC1=NN(C(C)(C)C)CC1C(=O)Nc1cc(C(=O)N2CC=CC2)ccc1F (racemic)
(A) 0

* * *

test system: cocklebur; assay: Test B pre-/postemergence herbicide test; type: in vivo, Xanthium strumarium; conditions: 500 g ai/ha; visual rating, 0 = no effect, 100 = complete control; preemergence
As shown below, each of these compounds has a reported Plant response rating, Cocklebur value.
Simply state the number, no unit and no words.

COMPOUND: CCNC(=O)c1cncc(NC(=O)c2cc(C(C)(C)C)nn2CC)n1
Plant response rating, Cocklebur: 0
--
COMPOUND: CCNC(=O)c1cccc(NC(=O)c2cc(C(C)(C)C)n[nH]2)c1
Plant response rating, Cocklebur: 0
--
COMPOUND: CCn1nc(C(C)(C)C)cc1C(=O)Nc1ccnc(C(=O)NCCF)c1
Plant response rating, Cocklebur: 0
--
COMPOUND: CCc1cn(C(C)(C)C)nc1C(=O)Nc1cc(C(=O)N(C)CC)ccn1
Plant response rating, Cocklebur: 0
--
COMPOUND: CCc1nc(C(C)(C)C)sc1C(=O)Nc1cccc(C(=O)NCC2CC2)n1
Plant response rating, Cocklebur: 0

(Q) Fill in Plant response rating, Cocklebur for record Cc1nn(C(C)(C)C)cc1C(=O)Nc1cc(C(=O)N(C)C)ccc1F
(A) 70

(Q) Fill in Plant response rating, Cocklebur for record CCC1=NN(C(C)(C)C)CC1C(=O)Nc1cc(C(=O)N2CC=CC2)ccc1F (racemic)
(A) 50

(Q) Fill in Plant response rating, Cocklebur for record CCn1nc(C(C)(C)C)cc1C(=O)Nc1cccc(OC(F)(F)C(F)F)c1
(A) 0

(Q) Fill in Plant response rating, Cocklebur for record CCCOC(=O)c1cc(NC(=O)c2cc(C(C)(C)C)nn2CC)c(F)cc1F
(A) 0

(Q) Fill in Plant response rating, Cocklebur for record CCn1nc(C(C)(C)C)cc1C(=O)Nc1nc(C(=O)OC)ccc1OC
(A) 0
